- measurement-description: inhibitors of TNFa-induced NFkB p65 translocation, primary screen, imaging, HUVEC, MLSMR starter and 10KST1 sets (AID 438);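 also: compound added about 3h40 before a 20 min TNFalpha stimulation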
- run-parameters: HUVEC TNFa-induced p65 nuclear translocation; measured here: nuclei count (cytotoxicity indicator), at 2.08 µM
Label true (1) when cell count is at or above 500; otherwise label false (0).

[
  {
    "molecule": "CCN(CC)CCN1C(=O)C(=O)/C(=C(/O)c2ccc(OC(C)C)cc2)C1c1ccncc1 (configuration not stated)",
    "qualitative-label": "true (1)"
  },
  {
    "molecule": "CC(=O)Nc1cnc2ccccc2n1",
    "qualitative-label": "true (1)"
  },
  {
    "molecule": "C=C(c1ccc(OCCO)cc1)c1ccc(OCCO)cc1",
    "qualitative-label": "false (0)"
  }
]

Would you say CCOc1ccc(CC2CC(=O)NC2=O)cc1 (configuration not stated) shows cell count at minimum 500?
true (1)

* * *

Below, each of the compounds is paired with its reported fluorescence slope value.
- target-system: Voltage-gated potassium channel subunit beta-2 (Rattus norvegicus) (UniProt P62483)
- Sequence (P62483 whole entry, looked up): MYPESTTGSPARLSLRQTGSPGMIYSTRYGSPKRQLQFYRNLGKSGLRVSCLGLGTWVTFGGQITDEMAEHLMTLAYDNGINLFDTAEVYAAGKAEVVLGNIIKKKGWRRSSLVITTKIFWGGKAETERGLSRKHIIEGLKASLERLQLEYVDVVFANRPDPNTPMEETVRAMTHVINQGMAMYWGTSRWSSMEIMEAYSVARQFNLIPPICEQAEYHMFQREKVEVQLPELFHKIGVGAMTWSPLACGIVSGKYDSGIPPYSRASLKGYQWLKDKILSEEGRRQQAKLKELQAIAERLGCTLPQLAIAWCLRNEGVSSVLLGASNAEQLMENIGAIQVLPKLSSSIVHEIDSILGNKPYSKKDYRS
- measurement-description: KvBeta enzyme negative modulators, primary screen, biochemical, NADPH fluorescence (AID 622);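 also: slope of raw intensity against log time taken from 70 to 1610 s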
- run-parameters: recombinant KvBeta, 4-cyanobenzaldehyde reduction, at 10 µM, stronger effect = higher value
Calls of active or inactive are those of the source.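 Rule for the calls: active = fluorescence slope higher than the sample average by over 3 SD (cut at about -0.22 in these data, passing the limit was not always enough); inactive = the rest.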

Recorded results for 2 compounds are shown here.
[
  {
    "compound": "O=C(O)CCN(CCC(=O)O)c1nnc(SCc2ccccc2)s1",
    "fluorescence slope": "-0.393 (inactive)"
  },
  {
    "compound": "Cn1c(=NCC(O)COc2ccccc2)sc2ccccc21 (stereo unspecified)",
    "fluorescence slope": "-0.367 (inactive)"
  }
]

// returns reported fluorescence slope for input Cc1cc(C)c(-n2c(O)c(C=NCCN3CCOCC3)c(=O)[nH]c2=O)c(C)c1
-0.334 (inactive)

// returns reported fluorescence slope for input CCOc1ccc(C2C(C#N)=C(N)SC(N)=C2C#N)cc1OC
-0.291 (inactive)

// returns reported fluorescence slope for input COc1ccc(OC)c(C2C(C(=O)c3ccco3)=C(O)C(=O)N2CCCN2CCOCC2)c1 (stereo unspecified)
-0.495 (inactive)

// returns reported fluorescence slope for input CNC(=O)c1cc2c(ccc3ccccc32)oc1=N
-0.075 (active)

// returns reported fluorescence slope for input COc1c2occc2c(OC)c2c(=O)cc(C)oc12
-0.445 (inactive)

// returns reported fluorescence slope for input CN1CCN(CCCN2c3ccccc3Sc3ccc(Cl)cc32)CC1
-0.449 (inactive)

// returns reported fluorescence slope for input O=C1CC(c2ccccc2)NC(=O)N1 (stereo unspecified)
-0.454 (inactive)

// returns reported fluorescence slope for input CCCC(=O)N1c2ccccc2NC2=C(C(=O)CCC2)C1c1ccc(F)cc1 (stereo unspecified)
-0.574 (inactive)

// returns reported fluorescence slope for input C=CCSc1nnc2n(-c3ccccc3OC)c(=O)c3c4c(sc3n12)CCC4
-0.339 (inactive)

* * *

- target-system: Voltage-gated potassium channel subunit beta-2 (Rattus norvegicus) (UniProt P62483)
- measurement-description: KvBeta positive modulators, primary screen, biochemical, NADPH fluorescence (AID 623);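 also: fluorescence intensity change per second fitted from 20 to 320 s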
- run-parameters: Recombinant KvBeta, NADPH fluorescence decrease slope, 10 min; at 10 µM; stronger effect = lower value
parameter: NADPH fluorescence slope
// print number alone

[
  {
    "molecule": "CSc1nc(Oc2ccc(=O)[nH]n2)nc(N(C)C)n1",
    "target-system": "Voltage-gated potassium channel subunit beta-2 (Rattus norvegicus) (UniProt P62483)",
    "NADPH fluorescence slope": "2.2e-06"
  },
  {
    "molecule": "O=C(CCCN1CC=C(n2c(=O)[nH]c3ccccc32)CC1)c1ccc(F)cc1",
    "target-system": "Voltage-gated potassium channel subunit beta-2 (Rattus norvegicus) (UniProt P62483)",
    "NADPH fluorescence slope": "-7.4e-05"
  },
  {
    "molecule": "Cc1ccc(C(C)C)c(OCCNc2nc3c(c(=O)n(C)c(=O)n3C)n2C)c1",
    "target-system": "Voltage-gated potassium channel subunit beta-2 (Rattus norvegicus) (UniProt P62483)",
    "NADPH fluorescence slope": "-5.2e-05"
  }
]

// returns reported NADPH fluorescence slope for input COc1ccc(/C(O)=C2\C(=O)C(=O)N(c3cc(C)on3)C2c2cccc(OC)c2OC)cc1C (configuration not stated)
-2.6e-05

// returns reported NADPH fluorescence slope for input CC(C)Oc1ccc2c(=O)c(-c3ccccc3)coc2c1
-6.4e-05

// returns reported NADPH fluorescence slope for input CCOC(=O)C1=C(CSc2nc(C)cc(C)c2C#N)OC(N)=C(C#N)C1c1cccs1 (configuration not stated)
-2.9e-05

// returns reported NADPH fluorescence slope for input O=C(CC(c1ccccc1)c1ccco1)N1CCOCC1 (configuration not stated)
-4.9e-05

// returns reported NADPH fluorescence slope for input CCCOc1cccc(-c2nnc(N)s2)c1
-5.5e-05

// returns reported NADPH fluorescence slope for input CC(C)Cc1nc2n[nH]c(N)c2c2c1CCC2
-8.3e-05

// returns reported NADPH fluorescence slope for input Cc1cc(C)nc(NC2=NCC(=O)N2c2ccc(Cl)cc2)n1
-1.6e-05

// returns reported NADPH fluorescence slope for input COC(=O)c1c(NC(=O)c2nn(C)cc2Cl)sc2c1CCCC2
-3.5e-05

// returns reported NADPH fluorescence slope for input COc1ccc(OCC(O)Cn2c(Nc3cccc(C)c3)nc3c2c(=O)n(C)c(=O)n3C)cc1 (configuration not stated)
-3.3e-05

// returns reported NADPH fluorescence slope for input CN1CCCN(C(c2ccccc2)c2ccc(Cl)cc2)CC1 (configuration not stated)
-1.7e-06

// returns reported NADPH fluorescence slope for input CCCCNC(=O)N1CCOCCOCCN(C(=O)NCCCC)CCOCCOCC1
-2.2e-05
